Each entry below lists one item and its recorded pIC50 value.
target: human PDHK2 (hPDHK2) (Homo sapiens (Human)); test: Inhibitory action of PDHK activity in vitro (kinase reaction, residual PDH activity measured); assay type: biochemical; conditions: read-out: PDHK inhibitory activity IC50
On this scale, pIC50 is minus log10 of a concentration expressed in M (mol/L).

- CN1C(=O)CCC1COc1ccc2c(c1)C(O)(C(F)(F)F)c1ccccc1-2 (stereo not drawn): 6.65
- CNC(=O)c1ccc2c(c1)C(O)(C(F)(F)F)c1ccccc1-2 (stereo not drawn): 5.07
- OC1(C(F)(F)F)c2ccccc2-c2ccc(C3CCCCC3)cc21 (stereo not drawn): 5.13
- OC1(C(F)(F)F)c2ccccc2-c2c(Cl)cc(-c3ccncc3)cc21 (stereo not drawn): 7.28
- CC(C)Cn1cc(-c2cc(CO)c3c(c2)C(O)(C(F)(F)F)c2ccccc2-3)cn1 (stereo not drawn): 7.43
- NC(=O)CCCOc1ccc2c(c1)C(O)(C(F)(F)F)c1ccccc1-2 (stereo not drawn): 5.82

INPUT: Query: pIC50; subject: Cc1cnc2c(c1)C(O)(C(F)(F)F)c1ccccc1-2 (stereo not drawn)
OUTPUT: 6.32

INPUT: Query: pIC50; subject: O=C1CC[C@@H](COc2ccc3c(c2)C(O)(C(F)(F)F)c2ccccc2-3)N1 (stereo partly drawn)
OUTPUT: 6.25

INPUT: Query: pIC50; subject: NC(=O)c1ccc2c(c1)C(O)(C(F)(F)F)c1ccccc1-2 (stereo not drawn)
OUTPUT: 5.24

INPUT: Query: pIC50; subject: CCOc1ccc2c(c1)-c1ccccc1C2(O)C(F)(F)F (stereo not drawn)
OUTPUT: 5.38

INPUT: Query: pIC50; subject: CC(C)(C)n1cc(-c2cc(CO)c3c(c2)C(O)(C(F)(F)F)c2ccccc2-3)cn1 (stereo not drawn)
OUTPUT: 6.90

INPUT: Query: pIC50; subject: CN(C)C(=O)c1cc(-c2cncnc2)c2c(c1)C(O)(C(F)(F)F)c1ccccc1-2 (stereo not drawn)
OUTPUT: 6.74

INPUT: Query: pIC50; subject: O=C1CCCN1CCOc1cc(-c2cn[nH]c2)c2c(c1)C(O)(C(F)(F)F)c1ccccc1-2 (stereo not drawn)
OUTPUT: 7.70

INPUT: Query: pIC50; subject: COc1cnc2c(c1)C(O)(C(F)(F)F)c1ccccc1-2 (stereo not drawn)
OUTPUT: 6.15

INPUT: Query: pIC50; subject: CC(C)c1ccc2c(c1)C(O)(C(F)(F)F)c1ccccc1-2 (stereo not drawn)
OUTPUT: 4.99

---

molecular target: human PDHK2 (hPDHK2) (Homo sapiens (Human)); test: Inhibitory action of PDHK activity in vitro (kinase reaction, residual PDH activity measured); format: biochemical; details: read-out: PDHK inhibitory activity IC50
Lab note: cut-off is 400 nM. Strictly less in IC50 is met. Exactly 400 nM or more is not met.

Examples from the recorded data:
* CC(=O)N(C)CCOc1cnc2c(c1)C(O)(C(F)(F)F)c1ccccc1-2 (stereo not drawn) [compound 398] | met
* Cc1ccc2c(c1)C(O)(C(F)(F)F)c1ccccc1-2 (stereo not drawn) [compound 3] | not met
* Cc1cccc(-c2ccc3c(c2)C(O)(C(F)(F)F)c2ccccc2-3)c1 (stereo not drawn) [compound 137] | not met
* O=C(COc1ccc2c(c1)C(O)(C(F)(F)F)c1ccccc1-2)N1CCCCC1 (stereo not drawn) [compound 361] | not met
* CN(C)C(=O)CCCOc1cc(-c2cncnc2)c2c(c1)C(O)(C(F)(F)F)c1ccccc1-2 (stereo not drawn) [compound 429] | met

INPUT: IC50 strictly < 400 nM for this compound? CON(C)C(=O)c1cccc2c1-c1ccccc1C2(O)C(F)(F)F (stereo not drawn) [compound 65]
OUTPUT: not met

INPUT: IC50 strictly < 400 nM for this compound? CN(CCOc1cc(-c2cncnc2)c2c(c1)C(O)(C(F)(F)F)c1ccccc1-2)C(=O)CO (stereo not drawn) [compound 424]
OUTPUT: met

INPUT: IC50 strictly < 400 nM for this compound? Cn1cc(-c2cc(OCCN3CCCC3=O)cc3c2-c2ccccc2C3(O)C(F)(F)F)cn1 (stereo not drawn) [compound 412]
OUTPUT: met

INPUT: IC50 strictly < 400 nM for this compound? Cn1cc(-c2cc(C(=O)NCCCCO)cc3c2-c2ccccc2C3(O)C(F)(F)F)cn1 (stereo not drawn) [compound 345]
OUTPUT: met

INPUT: IC50 strictly < 400 nM for this compound? COc1cc(-c2cnn(CC(C)(C)C(=O)O)c2)c2c(c1)C(O)(C(F)(F)F)c1ccccc1-2 (single isomer, unassigned) [compound 619]
OUTPUT: met

INPUT: IC50 strictly < 400 nM for this compound? O=C(O)Cn1cc(-c2cc(Cl)c3c(c2)C(O)(C(F)(F)F)c2ccccc2-3)cn1 (stereo not drawn) [compound 516]
OUTPUT: met

INPUT: IC50 strictly < 400 nM for this compound? CN(CCO)C(=O)c1ccc2c(c1)C(O)(C(F)(F)F)c1ccccc1-2 (stereo not drawn) [compound 297]
OUTPUT: not met

---

target: human PDHK2 (hPDHK2) (Homo sapiens (Human)); experiment: Inhibitory action of PDHK activity in vitro (kinase reaction, residual PDH activity measured); type: biochemical; settings: PDHK inhibitory activity, class symbol of IC50
pIC50: −log10 of the molar value.
readout_name: pIC50

Consider the reported pIC50 for these compounds:
• COC(=O)c1cc(Cl)c2c(c1)C(O)(C(F)(F)F)c1ccccc1-2 (stereo not drawn) = 6.00 to 7.00
• OCCOc1ccc2c(c1)C(O)(C(F)(F)F)c1ccccc1-2 (stereo not drawn) = < 6.00
• COc1ccc2c(c1)C(O)(C(F)(F)F)c1ccccc1-2 (stereo not drawn) = < 6.00
• Cc1cc(-c2cnn(CC(N)=O)c2)c2c(c1)[C@@](O)(C(F)(F)F)c1ccccc1-2 (stereo in doubt) = > 7.00
• O=C(NCCCCO)c1ccc2c(c1)C(O)(C(F)(F)F)c1ccccc1-2 (stereo not drawn) = < 6.00
• O=C(O)C1(n2cc(-c3cc(F)cc4c3-c3ccccc3[C@]4(O)C(F)(F)F)cn2)CCCC1 (stereo in doubt) = > 7.00
• Cc1cnc2c(c1)C(O)(C(F)(F)F)c1ccccc1-2 (stereo not drawn) = 6.00 to 7.00
• O=C(c1ccc2c(c1)C(O)(C(F)(F)F)c1ccccc1-2)N1CC1 (stereo not drawn) = < 6.00

INPUT: Query: pIC50; subject: NC(=O)c1cc(-c2cnn(CCO)c2)cc2c1-c1ccccc1C2(O)C(F)(F)F (stereo not drawn)
OUTPUT: > 7.00

INPUT: Query: pIC50; subject: CN(C)C(=O)CCn1cc(-c2cccc3c2-c2ccccc2C3(O)C(F)(F)F)cn1 (stereo not drawn)
OUTPUT: > 7.00

INPUT: Query: pIC50; subject: OCCn1cc(-c2cc(Cl)cc3c2-c2ccccc2C3(O)C(F)(F)F)cn1 (stereo not drawn)
OUTPUT: > 7.00

INPUT: Query: pIC50; subject: NC(=O)c1ccc2c(c1)-c1ccccc1C2(O)C(F)(F)F (stereo not drawn)
OUTPUT: < 6.00

---

molecular target: UniProt Q15119; test: Inhibitory action of PDHK activity in vitro (kinase reaction, residual PDH activity measured); type: biochemical; details: read-out: PDHK inhibitory activity IC50
readout_name: IC50 (nM)
Numeric only. Scale: nM

Consider the reported IC50 for these compounds:
- O=C(COc1ccc2c(c1)C(O)(C(F)(F)F)c1ccccc1-2)N1CCCC1 (centres unmarked) [compound 360]: 548
- OCC(CO)n1cc(-c2cc(F)cc3c2-c2ccccc2C3(O)C(F)(F)F)cn1 (single isomer, unassigned; (+)) [compound 595]: 22
- OC1(C(F)(F)F)c2ccccc2-c2ccc(OCC3CCCC3)cc21 (centres unmarked) [compound 254]: 1130

INPUT: Query: IC50; subject: Cn1cc(-c2cc(C(=O)N3CCC3)cc3c2-c2ccccc2C3(O)C(F)(F)F)cn1 (centres unmarked) [compound 355]
OUTPUT: 40

INPUT: Query: IC50; subject: NC(=O)c1ccc2c(c1)-c1ccccc1C2(O)C(F)(F)F (centres unmarked) [compound 42]
OUTPUT: 5560

INPUT: Query: IC50; subject: NC(=O)COC1CN(C(=O)c2ccc3c(c2)C(O)(C(F)(F)F)c2ccccc2-3)C1 (centres unmarked) [compound 116]
OUTPUT: 601

INPUT: Query: IC50; subject: CCOC1CN(C(=O)c2ccc3c(c2)C(O)(C(F)(F)F)c2ccccc2-3)C1 (centres unmarked) [compound 104]
OUTPUT: 279

INPUT: Query: IC50; subject: Oc1ccc2c(c1)C(O)(C(F)(F)F)c1ccccc1-2 (centres unmarked) [compound 38]
OUTPUT: 12000

INPUT: Query: IC50; subject: CC(=O)N(CCO)CCOc1ccc2c(c1)C(O)(C(F)(F)F)c1ccccc1-2 (centres unmarked) [compound 379]
OUTPUT: 351

INPUT: Query: IC50; subject: CNC(=O)COc1cc(Br)c2c(c1)C(O)(C(F)(F)F)c1ccccc1-2 (centres unmarked) [compound 438]
OUTPUT: 112

INPUT: Query: IC50; subject: Nc1cccc2c1-c1ccccc1C2(O)C(F)(F)F (centres unmarked) [compound 20]
OUTPUT: 3500

INPUT: Query: IC50; subject: OC[C@H](O)Cn1cc(-c2cc(F)cc3c2-c2ccccc2C3(O)C(F)(F)F)cn1 (single isomer, unassigned) [compound 566]
OUTPUT: 21

INPUT: Query: IC50; subject: COc1cc(-c2cnn(CCO)c2)c2c(c1)C(O)(C(F)(F)F)c1ccccc1-2 (centres unmarked) [compound 458]
OUTPUT: 39

INPUT: Query: IC50; subject: C#Cc1cc(-c2cnn(C)c2)cc2c1-c1ccccc1C2(O)C(F)(F)F (centres unmarked) [compound 578]
OUTPUT: 78

INPUT: Query: IC50; subject: COc1ccc2c(c1)-c1ccccc1C2(O)C(F)(F)F (centres unmarked) [compound 47]
OUTPUT: 4910

Value source: patent US8871934B2
